# Test system: PC-3
# assay.explanation: Cytotoxicity against human PC-3 cells assessed as reduction in cell viability measured after 72 hrs by SRB assay
# Format: functional, cell-based
# measurement.context: PC-3, 72 h
measured.metric: pIC50
pIC50 is defined as minus the log10 of a concentration measured in mol/L.

Cc1ccc([N+](=O)[O-])c2c(NCCCN3CCN(CCCNc4ccc5ncn6c7ccc(O)cc7c(=O)c4c56)CC3)c3ccccc3nc12	6.89
O=c1c2cc(O)ccc2n2cnc3ccc(NCCCN4CCN(CCCNc5c6ccccc6nc6cccc([N+](=O)[O-])c56)CC4)c1c32	7.46
Cc1ccc(NCCCN2CCN(CCCNc3c4ccccc4nc4cccc([N+](=O)[O-])c34)CC2)c2c(=O)c3cc(O)ccc3[nH]c12	7.32
CN(CCCNc1c2ccccc2nc2cccc([N+](=O)[O-])c12)CCCNc1ccc([N+](=O)[O-])c2[nH]c3ccccc3c(=O)c12	7.29

Proceed to the following item.
Prompt: // pIC50 lookup, key: CN(CCCNc1c2ccccc2nc2cccc([N+](=O)[O-])c12)CCCNc1ccc([N+](=O)[O-])c2[nH]c3ccc(O)cc3c(=O)c12
Response: 7.28

###

# System: HCT-116
# assay.explanation: Cytotoxicity against human HCT-116 cells assessed as reduction in cell viability measured after 72 hrs by SRB assay
# Assay type: functional, cell-based
# measurement.context: HCT-116, 72 h
So basically, if IC50 comes in under 50 nM it's MET, and if it's 50 nM or more it's NOT MET.

CN(CCCNc1c2ccccc2nc2cccc([N+](=O)[O-])c12)CCCNc1ccc([N+](=O)[O-])c2[nH]c3ccccc3c(=O)c12	NOT MET
Cc1ccc([N+](=O)[O-])c2c(NCCNc3ccc(C)c4[nH]c5ccccc5c(=O)c34)c3ccccc3nc12	NOT MET
Cc1ccc([N+](=O)[O-])c2c(NCCCN(C)CCCNc3ccc([N+](=O)[O-])c4[nH]c5ccccc5c(=O)c34)c3ccccc3nc12	NOT MET
Cc1nc2ccc(NCCCN3CCN(CCC(N)c4ccc5nc6ccccc6cc5c4[N+](=O)[O-])CC3)c3c(=O)c4cc(O)ccc4n1c23 (centres undefined)	MET

Prompt: # strict comparison: is reported IC50 < 50 nM? input = COc1ccc2c(c1)c(=O)c1c(NCCCN3CCN(CCC(N)c4ccc5nc6ccccc6cc5c4[N+](=O)[O-])CC3)ccc3ncn2c31 (centres undefined)
Response: MET

Prompt: # strict comparison: is reported IC50 < 50 nM? input = Cc1ccc([N+](=O)[O-])c2c(NCCCN3CCN(CCCNc4ccc(C)c5[nH]c6ccc(O)cc6c(=O)c45)CC3)c3ccccc3nc12
Response: MET

Prompt: # strict comparison: is reported IC50 < 50 nM? input = CN(CCCNc1c2ccccc2nc2cccc([N+](=O)[O-])c12)CCCNc1ccc([N+](=O)[O-])c2[nH]c3ccc(O)cc3c(=O)c12
Response: MET

Prompt: # strict comparison: is reported IC50 < 50 nM? input = Cc1ccc(NCCCN2CCN(CCCNc3c4ccccc4nc4cccc([N+](=O)[O-])c34)CC2)c2c(=O)c3cc(O)ccc3[nH]c12
Response: MET

Prompt: # strict comparison: is reported IC50 < 50 nM? input = O=c1c2ccccc2n2cnc3ccc(NCCCN4CCN(CCCNc5c6ccccc6nc6cccc([N+](=O)[O-])c56)CC4)c1c32
Response: MET

Prompt: # strict comparison: is reported IC50 < 50 nM? input = Cc1ccc([N+](=O)[O-])c2c(NCCCN(C)CCCNc3ccc(C)c4[nH]c5ccccc5c(=O)c34)c3ccccc3nc12
Response: NOT MET

Prompt: # strict comparison: is reported IC50 < 50 nM? input = CCc1c2c(nc3ccc(OC(=O)N4CCC(N5CCCCC5)CC4)cc13)-c1cc3c(c(=O)n1C2)COC(=O)[C@]3(O)CC
Response: NOT MET

Prompt: # strict comparison: is reported IC50 < 50 nM? input = Cc1cc(C(N)CCN2CCN(CCCNc3ccc4ncn5c6ccccc6c(=O)c3c45)CC2)c([N+](=O)[O-])c2cc3ccccc3nc12 (centres undefined)
Response: MET

Prompt: # strict comparison: is reported IC50 < 50 nM? input = NC(CCN1CCN(CCCNc2ccc3nnn4c5ccccc5c(=O)c2c34)CC1)c1ccc2nc3ccccc3cc2c1[N+](=O)[O-] (centres undefined)
Response: MET

###

Recorded pIC50 for the following compounds
# Tested on: LNCaP
# assay.explanation: Cytotoxicity against human LNCaP cells assessed as reduction in cell viability measured after 72 hrs by SRB assay
# Format: functional, cell-based
pIC50 is defined as minus the log10 of a concentration measured in mol/L.

The following compounds have reported results that may help.
Cc1ccc(NCCNCCNc2c3ccccc3nc3cccc([N+](=O)[O-])c23)c2c(=O)c3ccccc3[nH]c12	6.60
Cc1ccc([N+](=O)[O-])c2c(NCCCN(C)CCCNc3ccc(C)c4[nH]c5ccccc5c(=O)c34)c3ccccc3nc12	6.71

Prompt: // pIC50 lookup, key: Cc1ccc([N+](=O)[O-])c2c(NCCCN3CCN(CCCNc4ccc(C)c5[nH]c6ccc(O)cc6c(=O)c45)CC3)c3ccccc3nc12
Response: 6.52

Prompt: // pIC50 lookup, key: CN(CCCNc1c2ccccc2nc2cccc([N+](=O)[O-])c12)CCCNc1ccc([N+](=O)[O-])c2[nH]c3ccc(O)cc3c(=O)c12
Response: 7.28

Prompt: // pIC50 lookup, key: Cc1ccc([N+](=O)[O-])c2c(NCCCN3CCN(CCCNc4ccc([N+](=O)[O-])c5[nH]c6ccc(O)cc6c(=O)c45)CC3)c3ccccc3nc12
Response: 5.39

Prompt: // pIC50 lookup, key: O=c1c2cc(O)ccc2[nH]c2c([N+](=O)[O-])ccc(NCCCN3CCN(CCCNc4c5ccccc5nc5cccc([N+](=O)[O-])c45)CC3)c12
Response: 6.93

Prompt: // pIC50 lookup, key: Cc1ccc(NCCCN2CCN(CCCNc3c4ccccc4nc4cccc([N+](=O)[O-])c34)CC2)c2c(=O)c3cc(O)ccc3[nH]c12
Response: 7.08

Prompt: // pIC50 lookup, key: Cc1ccc([N+](=O)[O-])c2c(NCCNCCNc3ccc(C)c4[nH]c5ccccc5c(=O)c34)c3ccccc3nc12
Response: 6.60

Prompt: // pIC50 lookup, key: Cc1ccc([N+](=O)[O-])c2c(NCCCN(C)CCCNc3ccc([N+](=O)[O-])c4[nH]c5ccc(O)cc5c(=O)c34)c3ccccc3nc12
Response: 6.42

Prompt: // pIC50 lookup, key: Cc1ccc([N+](=O)[O-])c2c(NCCCNCCCNc3ccc(C)c4[nH]c5ccccc5c(=O)c34)c3ccccc3nc12
Response: 6.67

Prompt: // pIC50 lookup, key: Cc1ccc([N+](=O)[O-])c2c(NCCCNCCCNc3ccc([N+](=O)[O-])c4[nH]c5ccc(O)cc5c(=O)c34)c3ccccc3nc12
Response: 6.91

###

# System: NCI-H460
# assay.explanation: Cytotoxicity against human NCI-H460 cells assessed as reduction in cell viability measured after 72 hrs by SRB assay
# Assay type: functional, cell-based
# measurement.context: NCI-H460, 72 h
measured.metric: IC50 (nM)
Numeric answer only, unit nM assumed.

The following molecules have reported results that may help.
Cc1ccc([N+](=O)[O-])c2c(NCCCN(C)CCCNc3ccc([N+](=O)[O-])c4[nH]c5ccc(O)cc5c(=O)c34)c3ccccc3nc12	46
Cc1ccc([N+](=O)[O-])c2c(NCCCN(C)CCCNc3ccc(C)c4[nH]c5ccccc5c(=O)c34)c3ccccc3nc12	71
Cc1ccc(NCCCN2CCN(CCCNc3c4ccccc4nc4cccc([N+](=O)[O-])c34)CC2)c2c(=O)c3cc(O)ccc3[nH]c12	5
CN(CCCNc1c2ccccc2nc2cccc([N+](=O)[O-])c12)CCCNc1ccc([N+](=O)[O-])c2[nH]c3ccccc3c(=O)c12	10
Cc1ccc([N+](=O)[O-])c2c(NCCCN3CCN(CCCNc4ccc([N+](=O)[O-])c5[nH]c6ccc(O)cc6c(=O)c45)CC3)c3ccccc3nc12	47

Prompt: Which IC50 is reported with NCI-H460 for this entry: Cc1ccc([N+](=O)[O-])c2c(NCCCNCCCNc3ccc([N+](=O)[O-])c4[nH]c5ccc(O)cc5c(=O)c34)c3ccccc3nc12 ?
Response: 73

Prompt: Which IC50 is reported with NCI-H460 for this entry: O=c1c2cc(O)ccc2n2cnc3ccc(NCCCN4CCN(CCCNc5c6ccccc6nc6cccc([N+](=O)[O-])c56)CC4)c1c32 ?
Response: 17

Prompt: Which IC50 is reported with NCI-H460 for this entry: Cc1ccc([N+](=O)[O-])c2c(NCCCNCCCNc3ccc(C)c4[nH]c5ccccc5c(=O)c34)c3ccccc3nc12 ?
Response: 67
